test: Clearance in rat at 0.5 mg/kg, iv; format: ADME, organism-based; design: dose 0.5 mg/kg, route intravenous; details: in vivo
Measurement Kind: clearance (mL/min/kg)

Query string: Which clearance reading was recorded for the compound CCS(=O)(=O)CCN(C(=O)Cc1ccc(F)c(C(F)(F)F)c1)[C@H](C)c1nc2ccccc2cc1-c1ccc(C#N)cc1 ?
Result string: 42.2

Query string: Moving on to CCS(=O)(=O)CCN(C(=O)Cc1ccc(F)c(C(F)(F)F)c1)[C@H](C)c1nc2ccccn2c1-c1ccc(C#N)cc1
Result string: 36.3

Query string: Please do the same for CCS(=O)(=O)CCN(C(=O)Cc1ccc(F)c(C(F)(F)F)c1)[C@H](C)c1nc2ncccc2c(=O)n1-c1ccc(C#N)cc1 as well.
Result string: 39.7

I. CCS(=O)(=O)CCN(C(=O)Cc1ccc(F)c(C(F)(F)F)c1)[C@H](C)c1nc2ncccc2cc1-c1ccc(C#N)cc1
II. CCS(=O)(=O)CCN(C(=O)Cc1ccc(F)c(C(F)(F)F)c1)[C@H](C)c1nc2c(c(=O)n1-c1ccc(C#N)cc1)CCCN2C
III. CCS(=O)(=O)CCN(C(=O)Cc1ccc(F)c(C(F)(F)F)c1)[C@H](C)c1nc2ccccn2c(=O)c1-c1ccc(C#N)cc1
Query string: Please list these compounds in decreasing order of clearance. Would you mind listing the labels in the order requested?
Result string: II, I, III
